- ASSAYED_SYSTEM: T1, Human CD19-his protein (human, UniProt P15391 20-291)
- T1 construct: bought protein; also called recombinant human CD19-His; CD19 full-length protein; not shown: His tag
- T1 sequence (looked up): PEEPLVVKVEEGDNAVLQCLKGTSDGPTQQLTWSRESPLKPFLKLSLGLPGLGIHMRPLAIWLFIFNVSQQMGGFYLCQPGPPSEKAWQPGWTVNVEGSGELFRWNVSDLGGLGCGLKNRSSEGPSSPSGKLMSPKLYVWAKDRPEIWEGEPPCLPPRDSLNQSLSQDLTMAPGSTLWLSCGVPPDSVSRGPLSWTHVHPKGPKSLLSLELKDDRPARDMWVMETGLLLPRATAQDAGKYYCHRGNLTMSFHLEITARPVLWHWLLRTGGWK
- EXPERIMENT: ELISA, coated human CD19-His
Documented OD450 at 1.00 nM across a set of binders

BINDER	UNIT_SYMBOL	OD450 at 1.00 nM
F3.121.4-L3H1 (antibody, mouse IgG1, kappa, V domains shown, humanized antibody of F3.121.4, VL3+VH1, murine IgG1 constant regions) VH: EVQLVQSGAEVKKPGASVKVSCKASGYTFTNYWMHWVRQAPGQRLEWMGEIDPSDNYANYNQEFQGRVTITVDKSASTAYMELSSLRSEDTAVYYCARHDGYFGALDYWGQGTTVTVSS VL: EIVLTQSPDFQSVTPKEKVTITCSASSSISSNYLHWYQQKPDQSPKFLIYRTSNLASGVPSRFSGSGSGTDFTLTINSLEAEDAATYYCQQASSIPRMFTFGQGTKLEIKR	OD450	2.42
F3.121.4-L2H1 (antibody, mouse IgG1, kappa, V domains shown, humanized antibody of F3.121.4, VL2+VH1, murine IgG1 constant regions) VH: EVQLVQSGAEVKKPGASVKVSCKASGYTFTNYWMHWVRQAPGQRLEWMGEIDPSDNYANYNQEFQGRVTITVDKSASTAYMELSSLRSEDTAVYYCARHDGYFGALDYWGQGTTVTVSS VL: EIVLTQSPDFQSVTPKEKVTITCSASSSISSNYLHWYQQKPDQSPKLLIKRTSNLASGVPSRFSGSGSGTDFTLTINSLEAEDAATYYCQQASSIPRMFTFGQGTKLEIKR	OD450	2.42
F3.121.4-L3H2 (antibody, mouse IgG1, kappa, V domains shown, humanized antibody of F3.121.4, VL3+VH2, murine IgG1 constant regions) VH: EVQLVQSGAEVKKPGASVKVSCKASGYTFTNYWMHWVRQAPGQGLEWMGEIDPSDNYANYNQEFQGRVTITVDKSASTAYMELSSLRSEDTAVYYCARHDGYFGALDYWGQGTTVTVSS VL: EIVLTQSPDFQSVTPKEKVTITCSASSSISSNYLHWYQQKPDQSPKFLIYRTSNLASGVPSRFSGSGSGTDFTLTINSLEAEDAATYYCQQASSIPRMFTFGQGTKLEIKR	OD450	2.36
